FYI, the data here is from ChEMBL document CHEMBL1201862.

System: U-251
Assay: NCI tumour cell line growth inhibition, 48 h
Activity calls are given as the source filed them. No stated cut-off is given here; in the data, active = GI50 up to about 1.1 µM and inactive = higher.
# output must be one of active, inactive

Solved cases below.
>  <Compound>
COc1ccc(OC)c2c1C[C@@H]1C(C#N)N3[C@H](Cc4c(OC)ccc(OC)c4[C@@H]3C)C(=O)N1[C@H]2C (some centres not stated)

>  <Target Or Test System>
U-251

>  <Label Value>
inactive

$$$$
>  <Compound>
CCOC(=O)N1[C@@H]2CCC[C@@H]2C(=O)[C@@H]2CCC[C@@H]21

>  <Target Or Test System>
U-251

>  <Label Value>
inactive

$$$$
>  <Compound>
O=C1/C(=c2\s/c(=C\c3ccccc3)c(=O)n2-c2ccccc2)SC(=S)N1c1ccccc1

>  <Target Or Test System>
U-251

>  <Label Value>
inactive

$$$$
>  <Compound>
COC(=O)/C(=N/NC(N)=O)C(C(=O)OC)C(=O)C(=O)Nc1ccc(Cl)cc1 (configuration not stated)

>  <Target Or Test System>
U-251

>  <Label Value>
inactive

$$$$

Q: // param item: Cc1cccc(/C=C2\CCCCCC2=O)c1 ; yields the recorded call
Result: inactive

Q: // param item: CC[C@]12C=CCN3CCC4(c5cc([C@@]6(C(=O)OC)CC7CN(CCc8c6[nH]c6ccccc86)C[C@@H]6CCC[C@H]76)c(OC)cc5N(C)C4[C@](O)(C(=O)OC)C1OC(C)=O)C32 (some centres not stated) ; yields the recorded call
Result: active

Q: // param item: COc1cc(/C=C2\C[C@H]3[C@@H]4CC=C5C[C@@H](N6CCCC6)CC[C@]5(C)[C@H]4CC[C@]3(C)[C@H]2OC(C)=O)cc(OC)c1OC ; yields the recorded call
Result: inactive

Q: // param item: N#CC(C(=O)CCC(=O)Nc1cccc(C(F)(F)F)c1)c1ccccc1 (configuration not stated) ; yields the recorded call
Result: inactive

Q: // param item: C/C=C1/C(=O)O[C@]23C=C[C@@H]4C(C(=O)OC)=CO[C@H](O[C@@H]12)[C@@H]43 [PLUMERICIN] ; yields the recorded call
Result: inactive

Q: // param item: CCCCCCCCCCCCCB(O)O ; yields the recorded call
Result: inactive

Q: // param item: O=C(O)C1C2c3ccccc3C(c3ccccc32)C1C(=O)NCC1CC1 (configuration not stated) ; yields the recorded call
Result: inactive

* * *

molecules and their reported GI50
Test system: IGROV-1
Assay: NCI tumour cell line growth inhibition, 48 h
Calls of active or inactive are those of the source. Cut-off read from the data, not from the text of the source: active = GI50 up to about 1.1 µM and inactive = higher.

Below, 4 molecules whose answers are already recorded.
>  <Molecule>
N#C/C(=C\c1ccncc1)c1csc2ccccc12

>  <GI50>
28 µM (inactive)

$$$$
>  <Molecule>
O=c1c2ccccc2n2c(-c3ccccc3O)nnc2n1-c1ccccc1

>  <GI50>
> 100 µM (inactive)

$$$$
>  <Molecule>
CCOc1cc2c(cc1O)CC[C@@H]1[C@@H]2CC[C@]2(C)C(OS(=O)OC3CC[C@@H]4[C@H]5CCc6cc(O)c(OCC)cc6[C@@H]5CC[C@@]34C)CC[C@@H]12 (stereo not given in full)

>  <GI50>
4.52 µM (inactive)

$$$$
>  <Molecule>
CC(Cn1c2c(c3cc(O)ccc31)CCc1ccc(O)cc1-2)N(C)C (stereo not given)

>  <GI50>
12.8 µM (inactive)

$$$$

Simply: O=C(O)c1cccc(S(=O)(=O)NCCO)c1 , IGROV-1, GI50 = > 100 µM (inactive)

* * *

System: SW-620
Experiment: NCI tumour cell line growth inhibition, 48 h
The source made the active and inactive calls. Rule as the data show it: active = GI50 up to about 1.1 µM and inactive = higher. Square brackets hold non-standard residues; d marks the D form. Peptide text beside a SMILES is read from it. * marks the point of attachment. ξ: configuration not given here. ξW = NC(Cc1c[nH]c2ccccc12)C(=O)O; X29 = O=C(O)[C@H]1CCC[C@H]1N*; ξF = NC(Cc1ccccc1)C(=O)O; Boc = CC(C)(C)OC(=O)*; ξK = NCCCCC(N)C(=O)O; ξT = CC(O)C(N)C(=O)O; tBu = CC(C)(C)*
# output must be one of yes = active, no = inactive

>  <Compound>
CC(OC(C)(C)C)C(NC(=O)C(CCCCNC(=O)OC(C)(C)C)NC(=O)C(Cc1c[nH]c2ccccc12)NC(=O)C(N)Cc1ccccc1)C(=O)NC(Cc1ccccc1)C(=O)N[C@@H]1CCC[C@@H]1C(=O)O (stereo not given in full) (H-[ξF][ξW][ξK](Boc)[ξT](tBu)[ξF]-X29)

>  <Label Value>
no

$$$$
>  <Compound>
CC(C)=CCC/C(C)=C/CC/C(C)=C/CC/C(C)=C/CC/C(C)=C\CC/C(C)=C/CC/C(C)=C/CC/C(C)=C/Cc1cc(O)ccc1O

>  <Label Value>
no

$$$$
>  <Compound>
Cn1c(=O)c2nc(CS(=O)(=O)Cc3nc4c(=O)n(C)c(=O)n(C)c4[nH]3)[nH]c2n(C)c1=O

>  <Label Value>
no

$$$$
>  <Compound>
O=C(c1ccccc1)C(Nc1ccc2ccccc2c1)c1ccccc1 (stereo not given)

>  <Label Value>
no

$$$$
>  <Compound>
CC(O)CC(=O)CO[C@H]1[C@H](O)[C@@H](O)[C@@H](O)[C@@H]2NC(=O)c3c(cc4c(c3O)OCO4)[C@H]21 (stereo not given in full)

>  <Label Value>
yes

$$$$
>  <Compound>
C[C@H]1C[C@H]2[C@@H]3C(C)(C)O[C@]4(O)C(=O)[C@]5(O)[C@@H](C)CC[C@H]1[C@]25C(=O)[C@]34C

>  <Label Value>
no

$$$$

Q: // param item: COc1ccc(/C(C)=N/OC(=O)c2c(-c3ccccc3Cl)noc2C)cc1CN1CCOCC1 ; yields the recorded call
Result: no

Q: // param item: O=c1[nH]c(=O)n(COCCO)cc1-c1ccccc1 ; yields the recorded call
Result: no

* * *

Test system: IGROV-1
Experiment: NCI tumour cell line growth inhibition, 48 h
Activity calls are given as the source filed them. No stated cut-off is given here; in the data, active = GI50 up to about 1.1 µM and inactive = higher.
# output must be one of active, inactive

Solved cases below.
>  <Compound>
O=C1c2cc(Cc3ccccc3)c(=O)c(Cc3ccccc3)cc2C(=O)c2cc(Cc3ccccc3)c(=O)c(Cc3ccccc3)cc21

>  <Label Value>
inactive

$$$$
>  <Compound>
CN(N)C(=O)NCCCl

>  <Label Value>
inactive

$$$$
>  <Compound>
O=C(c1cccnc1)N1N=C(c2ccccc2)CC1(O)c1cc(F)c(Cl)cc1Cl (stereo not drawn)

>  <Label Value>
inactive

$$$$
>  <Compound>
CCN(CC)CCCNc1nc2ccccc2[n+]([O-])n1

>  <Label Value>
inactive

$$$$
>  <Compound>
Nc1ncnc2c1ncn2C1CC(OC2CCCCO2)C(CO)O1 (stereo not drawn)

>  <Label Value>
inactive

$$$$

Q: // param item: N#CC(C#N)=c1c(=O)c2c3ccccc3cc3cccc1c32 ; yields the recorded call
Result: inactive

Q: // param item: CNC(=O)c1cc2nc3ccccc3c(=O)n2c2ccccc12 ; yields the recorded call
Result: inactive

Q: // param item: CS(=O)(=O)N1CC(CCl)c2ccc([N+](=O)[O-])cc21 (stereo not drawn) ; yields the recorded call
Result: inactive

Q: // param item: Cc1nc(C(N)=S)sc1C(=O)CC(=O)C(=O)Nc1c(C(C)C)cccc1C(C)C ; yields the recorded call
Result: inactive

Q: // param item: Fc1cc2nc3n(c2cc1F)C(c1c(F)cccc1F)SC3 (stereo not drawn) ; yields the recorded call
Result: inactive

Q: // param item: O=C(Cc1ccccc1)NNc1nc(NNC(=O)c2ccncc2)nc(Nc2cccc(Cl)c2)n1 ; yields the recorded call
Result: inactive

Q: // param item: C[n+]1ccc2/c(=C\C#N)c3ccccc3n21 ; yields the recorded call
Result: inactive

Q: // param item: CCC/C=C1\CCC(CN(C)C)C1=O (stereo not drawn) ; yields the recorded call
Result: inactive

Q: // param item: Cc1ccc(S(=O)(=O)N2CCCCC2CCO)cc1 (stereo not drawn) ; yields the recorded call
Result: inactive

Q: // param item: O=C1C=C(c2ccccc2)O/C1=C\C(=O)c1ccc(Cl)cc1 ; yields the recorded call
Result: inactive

Q: // param item: Cc1ccccc1NC(=O)Cc1csc(N/N=C2\C(=O)Nc3ccccc32)n1 ; yields the recorded call
Result: inactive

Q: // param item: CCOC(=O)CC(=O)C(=O)NN=C1NCCN1 ; yields the recorded call
Result: inactive

Q: // param item: CC(Oc1ccccc1Cl)C(=O)NN1C(=O)CC(=O)NC1=S (stereo not drawn) ; yields the recorded call
Result: inactive

Q: // param item: CCCCN(c1ccccc1)c1ncnc2c1cnn2C ; yields the recorded call
Result: inactive

Q: // param item: CCOC(=O)C1(C(=O)OCC)CC=C(C)CC12C(=O)Nc1ccccc12 (stereo not drawn) ; yields the recorded call
Result: inactive

Q: // param item: COc1cccc2c1CCc1c(-c3ccc(F)cc3)cc(-c3ccc4ccccc4n3)nc1-2 ; yields the recorded call
Result: inactive

Q: // param item: CNC(=O)NCCN1N=C(C)/C(=C\c2ccccc2)CC1=O ; yields the recorded call
Result: inactive

Q: // param item: COC(=O)/C(=N/NC(N)=O)C(C(=O)OC)C(=O)C(=O)Nc1ccc(Cl)cc1 (stereo not drawn) ; yields the recorded call
Result: inactive

Q: // param item: CC(=O)/N=C1\N/C(=C\c2ccc(Cl)cc2)C(=O)N1/C=C1\C(=O)Oc2ccccc2C1=O ; yields the recorded call
Result: inactive

Q: // param item: O=C(/C=C/c1ccc(-c2ccccc2)cc1)NCc1ccc(C(=O)NCCc2ccccc2)cc1 ; yields the recorded call
Result: inactive

Q: // param item: COC(=O)C(=O)C(C(=O)C(N)=O)c1nc2ccc(C(=O)c3ccccc3)cc2nc1O (stereo not drawn) ; yields the recorded call
Result: inactive
